Task for the reader: assign each of the following compounds its reported Selectivity.
assay: Ratio of IC50 for human 5-HT1B to human 5-HT1D receptors
Kindly provide the number alone.

# Selectivity of CN(CC1CCN(CCCc2c[nH]c3ccc(-n4cnnc4)cc23)CC1)S(=O)(=O)c1ccccc1 = 11

# Selectivity of CC(=O)Nc1ccc(CN(C)CC2CCN(CCCc3c[nH]c4ccc(-n5cnnc5)cc34)CC2)cc1 = 40

# Selectivity of C[C@H](Cc1ccccc1)NC1CCN(CCCc2c[nH]c3ccc(-n4cnnc4)cc23)CC1 = 31

# Selectivity of CN(C1CCN(CCCc2c[nH]c3ccc(-n4cnnc4)cc23)CC1)[C@H](CO)c1ccccc1 = 17

# Selectivity of CS(=O)(=O)NC[C@H](NC1CCN(CCCc2c[nH]c3ccc(-n4cnnc4)cc23)CC1)c1ccccc1 = 5.2

# Selectivity of CN(Cc1ccoc1)C1CCN(CCCc2c[nH]c3ccc(-n4cnnc4)cc23)CC1 = 25

# Selectivity of C[C@@H](NC1CCN(CCCc2c[nH]c3ccc(-n4cnnc4)cc23)CC1)c1ccccc1 = 88

# Selectivity of CN(Cc1ccc(S(C)(=O)=O)cc1)CC1CCN(CCCc2c[nH]c3ccc(-n4cnnc4)cc23)CC1 = 8.1

# Selectivity of CN(CC1CC1)C1CCN(CCCc2c[nH]c3ccc(-n4cnnc4)cc23)CC1 = 12

Reference source for all entries: ChEMBL document CHEMBL1132157
